- TESTED TARGET: Cyclin-dependent kinase 12 (Homo sapiens, UniProt Q9NYV4); note: in the data inactive means no Kd found up to 30 µM
- Sequence (Q9NYV4 whole entry): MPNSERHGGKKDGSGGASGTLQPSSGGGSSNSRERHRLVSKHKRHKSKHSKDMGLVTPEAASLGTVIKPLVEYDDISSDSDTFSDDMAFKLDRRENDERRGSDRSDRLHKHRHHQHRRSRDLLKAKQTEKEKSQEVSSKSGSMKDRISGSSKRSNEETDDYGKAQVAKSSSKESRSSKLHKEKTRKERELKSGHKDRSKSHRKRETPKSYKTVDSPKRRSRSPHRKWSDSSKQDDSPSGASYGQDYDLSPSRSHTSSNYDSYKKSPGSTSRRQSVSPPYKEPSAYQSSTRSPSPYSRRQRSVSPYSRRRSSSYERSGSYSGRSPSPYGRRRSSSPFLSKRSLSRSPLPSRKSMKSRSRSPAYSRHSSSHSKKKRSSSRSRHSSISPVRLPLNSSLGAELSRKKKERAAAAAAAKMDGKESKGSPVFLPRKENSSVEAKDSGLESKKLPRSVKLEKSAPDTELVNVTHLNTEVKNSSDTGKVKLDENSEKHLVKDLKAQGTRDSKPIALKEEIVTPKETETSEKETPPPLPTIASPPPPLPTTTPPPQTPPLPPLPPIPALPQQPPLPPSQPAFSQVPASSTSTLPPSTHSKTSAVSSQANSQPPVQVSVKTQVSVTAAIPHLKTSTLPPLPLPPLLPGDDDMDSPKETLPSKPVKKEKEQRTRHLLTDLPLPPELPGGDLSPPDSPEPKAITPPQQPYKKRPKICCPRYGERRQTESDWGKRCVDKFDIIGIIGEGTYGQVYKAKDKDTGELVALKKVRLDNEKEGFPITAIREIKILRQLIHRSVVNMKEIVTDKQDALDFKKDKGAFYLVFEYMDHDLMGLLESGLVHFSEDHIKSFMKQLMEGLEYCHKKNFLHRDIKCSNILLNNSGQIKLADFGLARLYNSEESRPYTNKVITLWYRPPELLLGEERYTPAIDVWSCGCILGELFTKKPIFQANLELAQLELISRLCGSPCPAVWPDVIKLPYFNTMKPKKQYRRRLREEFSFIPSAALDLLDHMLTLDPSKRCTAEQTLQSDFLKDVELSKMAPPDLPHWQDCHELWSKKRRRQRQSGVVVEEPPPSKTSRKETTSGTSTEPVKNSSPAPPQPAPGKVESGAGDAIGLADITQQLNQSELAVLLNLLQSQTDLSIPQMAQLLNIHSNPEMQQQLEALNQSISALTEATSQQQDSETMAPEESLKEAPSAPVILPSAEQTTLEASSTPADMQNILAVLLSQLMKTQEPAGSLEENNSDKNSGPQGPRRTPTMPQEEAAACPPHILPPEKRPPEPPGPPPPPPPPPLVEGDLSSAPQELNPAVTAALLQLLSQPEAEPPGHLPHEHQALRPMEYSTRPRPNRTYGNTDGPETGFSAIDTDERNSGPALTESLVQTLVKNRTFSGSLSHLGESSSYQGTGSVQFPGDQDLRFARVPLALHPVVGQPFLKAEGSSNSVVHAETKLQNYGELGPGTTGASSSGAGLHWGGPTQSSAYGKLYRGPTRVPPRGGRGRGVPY
Calls of active or inactive are those of the source.
Could you please pick one outcome from this set? true (1) for active, false (0) for inactive

Solved entries (count: 2):
COMPOUND | ASSIGNED LABEL
COc1cc2ncnc(Nc3ccc(F)c(Cl)c3)c2cc1NC(=O)/C=C/CN1CCCCC1 [DACOMITINIB ANHYDROUS] | false (0)
CC(C)CC(=O)Nc1[nH]nc2c1CN(C(=O)C1CCN(C)CC1)C2(C)C [PHA-793887] | true (1)

Kindly consider the entry below.
Exercise: Please indicate how the test categorized NC[C@@](O)(c1ccc(Cl)cc1)c1ccc(-c2cn[nH]c2)cc1 [AT-13148] .
Key: false (0)

* * *

- TESTED TARGET: Tyrosine-protein kinase Tec (Homo sapiens, UniProt P42680); note: in the data inactive means no Kd found up to 30 µM
- Sequence (P42680 whole entry): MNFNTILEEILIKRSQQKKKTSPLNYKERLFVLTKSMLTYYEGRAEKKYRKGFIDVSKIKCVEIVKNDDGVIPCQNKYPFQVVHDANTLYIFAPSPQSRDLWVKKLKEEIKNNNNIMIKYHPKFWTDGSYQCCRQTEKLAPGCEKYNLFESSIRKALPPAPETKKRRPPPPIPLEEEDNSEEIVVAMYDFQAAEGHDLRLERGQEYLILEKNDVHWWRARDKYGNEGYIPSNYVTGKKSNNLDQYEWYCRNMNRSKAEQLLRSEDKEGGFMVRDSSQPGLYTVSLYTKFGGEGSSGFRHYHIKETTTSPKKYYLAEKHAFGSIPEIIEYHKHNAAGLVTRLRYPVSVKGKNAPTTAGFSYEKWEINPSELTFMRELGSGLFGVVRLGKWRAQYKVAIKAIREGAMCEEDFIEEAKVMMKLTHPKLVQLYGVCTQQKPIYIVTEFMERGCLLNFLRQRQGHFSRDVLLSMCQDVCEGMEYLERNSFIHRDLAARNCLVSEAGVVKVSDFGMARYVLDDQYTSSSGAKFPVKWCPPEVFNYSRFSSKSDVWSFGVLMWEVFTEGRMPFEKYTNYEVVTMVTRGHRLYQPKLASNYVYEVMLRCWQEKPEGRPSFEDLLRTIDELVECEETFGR
Calls of active or inactive are those of the source.
Could you please pick one outcome from this set? active, inactive

Solved entries (count: 4):
MOLECULE | ASSIGNED LABEL
O=C(O)c1ccc2c(c1)nc(Nc1cccc(Cl)c1)c1ccncc12 | inactive
Cc1c(Cn2c(C)nc3c(C(=O)O)cc(N4CCOCC4)cc32)cccc1C(F)(F)F | inactive
O=c1[nH]c([C@@H]2CCCN2)nc2c1oc1ccc(Cl)cc12 | inactive
COCCN1CCN(Cc2ccc(-c3n[nH]c4c3C(=O)c3c(NC(=O)NN5CCOCC5)cccc3-4)cc2)CC1 | inactive

Exercise: Please indicate how the test categorized `NC(=O)c1ccc(N(C(N)=O)c2c(F)cccc2F)nc1-c1ccc(F)cc1F` .
Key: inactive

Exercise: Repeat with `CC[C@@](C)(Nc1ccnc(-c2c[nH]c3ncccc23)n1)C(=O)NCC(F)(F)F`
Key: inactive

Exercise: Repeat with `COc1cc2ncnc(Nc3ccc(O)cc3)c2cc1OC`
Key: inactive

Exercise: Repeat with `CNC(=O)c1ccc(Nc2ncc(C(F)(F)F)c(NCc3nccnc3N(C)S(C)(=O)=O)n2)cc1`
Key: inactive

Exercise: Repeat with `CN1CCN(c2nc(C3=C(c4c[nH]c5ccccc45)C(=O)NC3=O)c3ccccc3n2)CC1`
Key: inactive

Exercise: Repeat with `O=C(NC[C@H](O)CO)c1ccncc1Nc1ccc(I)cc1F`
Key: inactive

Exercise: Repeat with `O=S(=O)(c1cccc2cnccc12)N1CCCNCC1`
Key: inactive

Exercise: Repeat with `O=C(Nc1ccc(OC(F)(F)F)cc1)c1sccc1NCc1ccnc2ccccc12`
Key: inactive

Exercise: Repeat with `C=CC(=O)Nc1cccc(Nc2nc(Nc3ccc(N4CCN(C(C)=O)CC4)cc3OC)ncc2C(F)(F)F)c1`
Key: active

Exercise: Repeat with `CC1(COc2ccc3c(c2)ncn3-c2ccc3cccc(N4CCC(N)CC4)c3n2)COC1`
Key: inactive

Exercise: Repeat with `Cc1c(NC(=O)OC[C@@H]2COCCN2)cn2ncnc(Nc3ccc4c(cnn4Cc4cccc(F)c4)c3)c12`
Key: inactive

Exercise: Repeat with `C[C@@H]1COC(Nc2ccc3ncnc(Nc4ccc(OCc5nccs5)c(Cl)c4)c3c2)=N1`
Key: inactive

* * *

Measurement record for STE20-related kinase adapter protein alpha (Homo sapiens, UniProt Q7RTN6); quantity recorded: Kd.
The source made the active and inactive calls.

Illustrative cases are given below, each with its answer.
SMILES INPUT | TESTED TARGET | Kd
CNC(=O)c1ccc(Nc2ncc(C(F)(F)F)c(NCc3nccnc3N(C)S(C)(=O)=O)n2)cc1 | STE20-related kinase adapter protein alpha (Homo sapiens, UniProt Q7RTN6) | > 30 µM (inactive)
Cn1cnc2c(F)c(Nc3ccc(Br)cc3Cl)c(C(=O)NOCCO)cc21 | STE20-related kinase adapter protein alpha (Homo sapiens, UniProt Q7RTN6) | > 30 µM (inactive)

Exercise: Entry under review: `COc1cccc2cc(-c3nc([C@H]4CC[C@H](C(=O)O)CC4)n4ncnc(N)c34)[nH]c12` . Reported Kd?
Key: > 30 µM (inactive)
